From: ChEMBL document CHEMBL5724806

experiment: The drug is tested on the gut metagenome community of A-08 with ENA study accession number: PRJEB31790 for biotransformation under microaerobic condition. The drug concentrations were measured over 7 timepoints collected between 0 and 12 hours of incubation by liquid-chromatography-coupled mass spectrometry (LC–MS); assay type: ADME; parameters: dose 5 uM, timepoint 0, 0.75, 1.5, 3, 6, 9, 12 hours; settings: 5 µM
Assay Readout: Bacterial Biotransformation

Compound	Assay Readout	Test Result
CNC(=C[N+](=O)[O-])NCCSCc1ccc(CN(C)C)o1 [RANITIDINE]	Bacterial Biotransformation	Compound metabolized
C[C@]12CCC(=O)C=C1CC[C@@H]1[C@@H]2[C@@H](O)C[C@@]2(C)[C@H]1CC[C@]2(O)C(=O)CO [HYDROCORTISONE]	Bacterial Biotransformation	Compound metabolized
C[C@]12CCC(=O)C=C1CC[C@@H]1[C@@H]2C(=O)C[C@@]2(C)[C@H]1CC[C@]2(O)C(=O)CO [CORTISONE]	Bacterial Biotransformation	Compound metabolized
CCOC(=O)C1=C(COCCN)NC(C)=C(C(=O)OC)C1c1ccccc1Cl (stereo not given) [AMLODIPINE]	Bacterial Biotransformation	Compound NOT metabolized
CCOC(=O)[C@H](CCc1ccccc1)N[C@@H](C)C(=O)N1[C@H](C(=O)O)C[C@@H]2CCC[C@@H]21	Bacterial Biotransformation	Compound NOT metabolized

Turning to the following compound.
Entry `C[C@@H](NCCCc1cccc(C(F)(F)F)c1)c1cccc2ccccc12` : reported Bacterial Biotransformation = ? Compound NOT metabolized

* * *

experiment: The drug is tested on Lactobacillus paracasei strain: ATCC27092 for biotransformation under anaerobic condition. The drug concentrations were measured over 6 timepoints collected between 0 and 12 hours of incubation by liquid-chromatography-coupled mass spectrometry (LC–MS); type: ADME; design: dose 5 uM, timepoint 0, 1.5, 3, 6, 9, 12 hours; settings: lacticaseibacillus paracasei, 5 µM

Compound	Bacterial Biotransformation
COc1c(C)c2c(c(O)c1C/C=C(\C)CCC(=O)O)C(=O)OC2	Compound NOT metabolized
CCCC1O[C@@H]2C[C@H]3[C@@H]4CCC5=CC(=O)C=C[C@]5(C)[C@H]4[C@@H](O)C[C@]3(C)[C@]2(C(=O)CO)O1 (some centres undefined) [BUDESONIDE]	Compound NOT metabolized
C[C@@H]1C[C@H]2[C@@H]3CCC4=CC(=O)C=C[C@]4(C)[C@@]3(F)[C@@H](O)C[C@]2(C)[C@@]1(O)C(=O)CO	Compound NOT metabolized

* * *

experiment: The drug is tested on the gut metagenome community of A-05 with ENA study accession number: PRJEB31790 for biotransformation under anaerobic condition. The drug concentrations were measured over 7 timepoints collected between 0 and 12 hours of incubation by liquid-chromatography-coupled mass spectrometry (LC–MS); type: ADME; set-up: dose 5 uM, timepoint 0, 0.75, 1.5, 3, 6, 9, 12 hours; conditions: 5 µM
Assay Readout: Bacterial Biotransformation

Below, each entry is followed by its recorded Bacterial Biotransformation result.
Compound	Assay Readout	Test Result
CCOC(=O)[C@H](CCc1ccccc1)N[C@@H](C)C(=O)N1[C@H](C(=O)O)C[C@@H]2CCC[C@@H]21	Bacterial Biotransformation	Compound NOT metabolized
COc1ccc([C@@H]2Sc3ccccc3N(CCN(C)C)C(=O)[C@@H]2OC(C)=O)cc1	Bacterial Biotransformation	Compound metabolized
CCC(C)(C)C(=O)O[C@H]1C[C@@H](C)C=C2C=C[C@H](C)[C@H](CC[C@@H]3C[C@@H](O)CC(=O)O3)[C@H]21	Bacterial Biotransformation	Compound NOT metabolized
CNC(=C[N+](=O)[O-])NCCSCc1ccc(CN(C)C)o1	Bacterial Biotransformation	Compound NOT metabolized

Entry `C[C@]12CCC(=O)C=C1CC[C@@H]1[C@@H]2C(=O)C[C@@]2(C)[C@H]1CC[C@]2(O)C(=O)CO` : reported Bacterial Biotransformation = ? Compound metabolized

Entry CCCC1O[C@@H]2C[C@H]3[C@@H]4CCC5=CC(=O)C=C[C@]5(C)[C@H]4[C@@H](O)C[C@]3(C)[C@]2(C(=O)CO)O1 (stereo partly drawn) [BUDESONIDE] : reported Bacterial Biotransformation = ? Compound NOT metabolized

Entry `C=CC[C@@H]1/C=C(\C)C[C@H](C)C[C@H](OC)[C@H]2O[C@@](O)(C(=O)C(=O)N3CCCC[C@H]3C(=O)O[C@H](/C(C)=C/[C@@H]3CC[C@@H](O)[C@H](OC)C3)[C@H](C)[C@@H](O)CC1=O)[C@H](C)C[C@@H]2OC.O` : reported Bacterial Biotransformation = ? Compound NOT metabolized

* * *

assay: The drug is tested on Dorea formicigenerans strain: DSM3992 for biotransformation under anaerobic condition. The drug concentrations were measured over 6 timepoints collected between 0 and 12 hours of incubation by liquid-chromatography-coupled mass spectrometry (LC–MS); assay type: ADME; parameters: dose 5 uM, timepoint 0, 1.5, 3, 6, 9, 12 hours; conditions: 5 µM

Compound	Bacterial Biotransformation
COc1c(C)c2c(c(O)c1C/C=C(\C)CCC(=O)O)C(=O)OC2	Compound NOT metabolized
Cn1cnc([N+](=O)[O-])c1Sc1ncnc2nc[nH]c12	Compound metabolized
CO[C@H]1C[C@@H]2CC[C@@H](C)[C@@](O)(O2)C(=O)C(=O)N2CCCC[C@H]2C(=O)O[C@H]([C@H](C)C[C@@H]2CC[C@@H](OCCO)[C@H](OC)C2)CC(=O)[C@H](C)/C=C(\C)[C@@H](O)[C@@H](OC)C(=O)[C@H](C)C[C@H](C)/C=C/C=C/C=C/1C	Compound metabolized
CCCC1O[C@@H]2C[C@H]3[C@@H]4CCC5=CC(=O)C=C[C@]5(C)[C@H]4[C@@H](O)C[C@]3(C)[C@]2(C(=O)CO)O1 (some centres undefined) [BUDESONIDE]	Compound NOT metabolized

* * *

assay: The drug is tested on Lactobacillus ruminis strain: ATCC25644 for biotransformation under anaerobic condition. The drug concentrations were measured over 6 timepoints collected between 0 and 12 hours of incubation by liquid-chromatography-coupled mass spectrometry (LC–MS); type: ADME; design: dose 5 uM, timepoint 0, 1.5, 3, 6, 9, 12 hours; conditions: ligilactobacillus ruminis, 5 µM

Molecule	Bacterial Biotransformation
CCC(C)(C)C(=O)O[C@H]1C[C@@H](C)C=C2C=C[C@H](C)[C@H](CC[C@@H]3C[C@@H](O)CC(=O)O3)[C@H]21 [SIMVASTATIN]	Compound NOT metabolized
NS(=O)(=O)c1cc(C(=O)O)c(NCc2ccco2)cc1Cl [FUROSEMIDE]	Compound NOT metabolized
CNC(=C[N+](=O)[O-])NCCSCc1ccc(CN(C)C)o1 [RANITIDINE]	Compound NOT metabolized

* * *

experiment: The drug is tested on the gut metagenome community of A-02 with ENA study accession number: PRJEB31790 for biotransformation under microaerobic condition. The drug concentrations were measured over 7 timepoints collected between 0 and 12 hours of incubation by liquid-chromatography-coupled mass spectrometry (LC–MS); type: ADME; design: dose 5 uM, timepoint 0, 0.75, 1.5, 3, 6, 9, 12 hours; settings: 5 µM
Assay Readout: Bacterial Biotransformation

Below, each entry is followed by its recorded Bacterial Biotransformation result.
Molecule	Test Result
CCOC(=O)[C@H](CCc1ccccc1)N[C@@H](C)C(=O)N1[C@H](C(=O)O)C[C@@H]2CCC[C@@H]21	Compound NOT metabolized
C[C@@H]1C[C@H]2[C@@H]3CCC4=CC(=O)C=C[C@]4(C)[C@@]3(F)[C@@H](O)C[C@]2(C)[C@@]1(O)C(=O)CO	Compound metabolized
CCC(C)(C)C(=O)O[C@H]1C[C@@H](C)C=C2C=C[C@H](C)[C@H](CC[C@@H]3C[C@@H](O)CC(=O)O3)[C@H]21	Compound metabolized
C[C@]12C=CC(=O)C=C1CC[C@@H]1[C@@H]2C(=O)C[C@@]2(C)[C@H]1CC[C@]2(O)C(=O)CO	Compound metabolized
C[C@]12CCC(=O)C=C1CC[C@@H]1[C@@H]2C(=O)C[C@@]2(C)[C@H]1CC[C@]2(O)C(=O)CO	Compound metabolized
CNC(=C[N+](=O)[O-])NCCSCc1ccc(CN(C)C)o1	Compound metabolized
C[C@]12CCC(=O)C=C1CC[C@@H]1[C@@H]2[C@@H](O)C[C@@]2(C)[C@H]1CC[C@]2(O)C(=O)CO [HYDROCORTISONE]	Compound metabolized
CO[C@H]1C[C@@H]2CC[C@@H](C)[C@@](O)(O2)C(=O)C(=O)N2CCCC[C@H]2C(=O)O[C@H]([C@H](C)C[C@@H]2CC[C@@H](OCCO)[C@H](OC)C2)CC(=O)[C@H](C)/C=C(\C)[C@@H](O)[C@@H](OC)C(=O)[C@H](C)C[C@H](C)/C=C/C=C/C=C/1C	Compound metabolized

Entry `CO[C@H]1C[C@@H]2CC[C@@H](C)[C@@](O)(O2)C(=O)C(=O)N2CCCC[C@H]2C(=O)O[C@H]([C@H](C)C[C@@H]2CC[C@@H](O)[C@H](OC)C2)CC(=O)[C@H](C)/C=C(\C)[C@@H](O)[C@@H](OC)C(=O)[C@H](C)C[C@H](C)/C=C/C=C/C=C/1C` : reported Bacterial Biotransformation = ? Compound metabolized

Entry NS(=O)(=O)c1cc(C(=O)O)c(NCc2ccco2)cc1Cl [FUROSEMIDE] : reported Bacterial Biotransformation = ? Compound NOT metabolized

Entry COc1c(C)c2c(c(O)c1C/C=C(\C)CCC(=O)OCCN1CCOCC1)C(=O)OC2 [MYCOPHENOLATE MOFETIL] : reported Bacterial Biotransformation = ? Compound metabolized

Entry `C[C@]12C=CC(=O)C=C1CC[C@@H]1[C@@H]2[C@@H](O)C[C@@]2(C)[C@H]1CC[C@]2(O)C(=O)CO` : reported Bacterial Biotransformation = ? Compound metabolized

Entry `CCOc1nc2cccc(C(=O)O)c2n1Cc1ccc(-c2ccccc2-c2nnn[nH]2)cc1` : reported Bacterial Biotransformation = ? Compound NOT metabolized
